# assay.overview: Cmax in monkey at 1.0 mg/kg, po
# Type: ADME, organism-based, Macaca mulatta
# Design: dose 1 mg/kg, route oral
# applied.conditions: rhesus monkey, in vivo
measure: Cmax (ng/mL)

A. CN1CCc2nc(C(=O)N[C@@H]3CCCC[C@@H]3NC(=O)c3cc4cc(Cl)ccc4[nH]3)sc2C1.Cl
B. COCC(=O)N1CC[C@H](NC(=O)c2cc3cc(Cl)ccc3[nH]2)[C@H](NC(=O)c2nc3c(s2)CN(C)CC3)C1.Cl
Q) Hi there! Just curious which has the higher Cmax between A and B . State your choice using its label.
A) B
(B: 36.4 ng/mL, A: 23.3 ng/mL)

---

# assay.overview: Metabolic stability assessed as intrinsic clearance in human liver microsome
# Assay type: ADME
# applied.conditions: liver microsomes
measure: CLint scaled (mL/min/kg)

# compound, unit.name, result.number
measured = [
    ("CN1CCc2nc(C(=O)NC3CCCCC3NC(=O)c3cc4cc(Cl)ccc4[nH]3)sc2C1 (racemic)", "mL/min/kg", 81),
]

P. CN1CCc2nc(C(=O)NC3CN(C(=O)OC(C)(C)C)CCC3NC(=O)c3cc4cc(Cl)ccc4[nH]3)sc2C1 (racemic)
Q. COCC(=O)N1CCC(NC(=O)c2cc3cc(Cl)ccc3[nH]2)C(NC(=O)c2nc3c(s2)CN(C)CC3)C1 (racemic)
Q) Hi there! Just curious which has the higher CLint scaled between P and Q . State your choice using its label.
A) P
(P: 140 mL/min/kg, Q: 45.9 mL/min/kg)

I. CN1CCc2nc(C(=O)NC3CN(C(=O)NC(C)(C)C)CCC3NC(=O)c3cc4cc(Cl)ccc4[nH]3)sc2C1 (racemic)
II. CN1CCc2nc(C(=O)NC3CN(C(=O)CO)CCC3NC(=O)c3cc4cc(Cl)ccc4[nH]3)sc2C1 (racemic)
Q) Kindly identify the item with the lower CLint scaled figure among these two: I and II State your choice using its label.
A) II
(II: 41.4 mL/min/kg, I: 99.9 mL/min/kg)

---

# assay.overview: Solubility in japanese pharmacopoeia second fluid at pH 6.8
# Assay type: physicochemical
measure: solubility (µg/mL)

# molecule, measure, result.number
measured = [
    ("CC(C)C(=O)N1CC[C@H](NC(=O)c2cc3cc(Cl)ccc3[nH]2)[C@H](NC(=O)c2nc3c(s2)CN(C)CC3)C1", "solubility", 66),
]

a. COC(=O)CN1CC[C@H](NC(=O)c2cc3cc(Cl)ccc3[nH]2)[C@H](NC(=O)c2nc3c(s2)CN(C)CC3)C1
b. CN1CCc2nc(C(=O)N[C@@H]3CN(CC(=O)O)CC[C@@H]3NC(=O)c3cc4cc(Cl)ccc4[nH]3)sc2C1
c. CN1CCc2nc(C(=O)NC3CCN(S(C)(=O)=O)CC3NC(=O)c3cc4cc(Cl)ccc4[nH]3)sc2C1 (racemic)
d. CC(=O)N1CCC(NC(=O)c2nc3c(s2)CN(C)CC3)C(NC(=O)c2cc3cc(Cl)ccc3[nH]2)C1 (racemic)
e. COCCN1CC[C@H](NC(=O)c2cc3cc(Cl)ccc3[nH]2)[C@H](NC(=O)c2nc3c(s2)CN(C)CC3)C1
Q) Sort ascending by solubility. In plain terms: list the labels in the order you were asked to.
A) a, c, e, d, b

---

# Test system: Plasma
# assay.overview: Anticoagulant activity in human plasma assessed as concentration required to double prothrombin time
# Format: functional
Property: Activity; scope: individual compounds
Kindly provide the numeric value in µM only, without the unit symbol.

# count of solved cases: 5
# compound, Activity (µM)
data = [
    ("CN1CCc2nc(C(=O)N[C@@H]3CN(CC(=O)O)CC[C@@H]3NC(=O)c3cc4cc(Cl)ccc4[nH]3)sc2C1", 1.8),
    ("COCC(=O)N1CC[C@H](NC(=O)c2cc3cc(Cl)ccc3[nH]2)[C@H](NC(=O)c2nc3c(s2)CN(C)CC3)C1", 0.78),
    ("CN1CCc2nc(C(=O)NC3CN(S(C)(=O)=O)CCC3NC(=O)c3cc4cc(Cl)ccc4[nH]3)sc2C1 (racemic)", 2.5),
    ("CN1CCc2nc(C(=O)N[C@@H]3CN(C(=O)NC(C)(C)C)CC[C@@H]3NC(=O)c3cc4cc(Cl)ccc4[nH]3)sc2C1", 0.78),
    ("CN1CCc2nc(C(=O)NC3CNCCC3NC(=O)c3cc4cc(Cl)ccc4[nH]3)sc2C1 (racemic)", 1.3),
]

Field: next compound
Q) Fill: Activity (Plasma) for this compound CCC(=O)N1CC[C@H](NC(=O)c2cc3cc(Cl)ccc3[nH]2)[C@H](NC(=O)c2nc3c(s2)CN(C)CC3)C1
A) 0.78

---

# assay.overview: Solubility in japanese pharmacopoeia second fluid at pH 6.8
# Format: physicochemical
measure: solubility (µg/mL)

# count of solved cases: 4
# molecule, result.number
records = [
    ("CCC(=O)N1CC[C@H](NC(=O)c2cc3cc(Cl)ccc3[nH]2)[C@H](NC(=O)c2nc3c(s2)CN(C)CC3)C1", 160),
    ("CN1CCc2nc(C(=O)NC3CN(S(C)(=O)=O)CCC3NC(=O)c3cc4cc(Cl)ccc4[nH]3)sc2C1 (racemic)", 103),
    ("CN1CCc2nc(C(=O)N[C@@H]3CCCC[C@@H]3NC(=O)c3cc4cc(Cl)ccc4[nH]3)sc2C1", 16),
    ("CCOC(=O)N1CCC(NC(=O)c2nc3c(s2)CN(C)CC3)C(NC(=O)c2cc3cc(Cl)ccc3[nH]2)C1 (racemic)", 37),
]

A. CN1CCc2nc(C(=O)N[C@@H]3CN(C(=O)NC(C)(C)C)CC[C@@H]3NC(=O)c3cc4cc(Cl)ccc4[nH]3)sc2C1
B. CN1CCc2nc(C(=O)N[C@@H]3CN(C(=O)N(C)C)CC[C@@H]3NC(=O)c3cc4cc(Cl)ccc4[nH]3)sc2C1
C. CC(=O)N1CCC(NC(=O)c2cc3cc(Cl)ccc3[nH]2)C(NC(=O)c2nc3c(s2)CN(C)CC3)C1 (racemic)
Q) Reorder: solubility, max to min. In plain terms: list the labels in the order you were asked to.
A) C, B, A

---

# assay.overview: Tmax in monkey at 1.0 mg/kg, po
# Format: ADME, organism-based, Macaca mulatta
# Design: dose 1 mg/kg, route oral
# applied.conditions: rhesus monkey, in vivo
measure: Tmax (h)

a. CN1CCc2nc(C(=O)N[C@@H]3CCCC[C@@H]3NC(=O)c3cc4cc(Cl)ccc4[nH]3)sc2C1.Cl
b. COCC(=O)N1CC[C@H](NC(=O)c2cc3cc(Cl)ccc3[nH]2)[C@H](NC(=O)c2nc3c(s2)CN(C)CC3)C1.Cl
Q) Kindly identify the item with the lower Tmax figure among these two: a and b State your choice using its label.
A) b
(b: 1.2 h, a: 2 h)

---

# System: Rattus norvegicus
# assay.overview: Ex vivo inhibition of factor 10a in Wistar rat plasma at 10 mg/kg, po after 4 hrs
# Assay type: functional
Property: inhibition in vivo at 10 mg/kg; scope: individual compounds
Kindly provide the numeric value in % only, without the unit symbol.

# chemical.string, unit.name, inhibition in vivo at 10 mg/kg
rows = [
    ("CN1CCc2nc(C(=O)N[C@@H]3CN(C(=O)N(C)C)CC[C@@H]3NC(=O)c3cc4cc(Cl)ccc4[nH]3)sc2C1", "%", 68.1),
]

Q) Could you please provide reported inhibition in vivo at 10 mg/kg for COCC(=O)N1CC[C@H](NC(=O)c2cc3cc(Cl)ccc3[nH]2)[C@H](NC(=O)c2nc3c(s2)CN(C)CC3)C1 ? Thanks!
A) 16

Q) Could you please provide reported inhibition in vivo at 10 mg/kg for CCNC(=O)N1CC[C@H](NC(=O)c2cc3cc(Cl)ccc3[nH]2)[C@H](NC(=O)c2nc3c(s2)CN(C)CC3)C1 ? Thanks!
A) 4.3

Q) Could you please provide reported inhibition in vivo at 10 mg/kg for CN1CCc2nc(C(=O)N[C@@H]3CN(C(=O)CO)CC[C@@H]3NC(=O)c3cc4cc(Cl)ccc4[nH]3)sc2C1 ? Thanks!
A) -7.3

---

# assay.overview: Metabolic stability assessed as intrinsic clearance in human liver microsome
# Type: ADME
# applied.conditions: liver microsomes
measure: CLint scaled (mL/min/kg)

# count of solved cases: 2
# compound, unit.name, CLint scaled
data = [
    ("CCC(=O)N1CCC(NC(=O)c2cc3cc(Cl)ccc3[nH]2)C(NC(=O)c2nc3c(s2)CN(C)CC3)C1 (racemic)", "mL/min/kg", 103),
    ("CN1CCc2nc(C(=O)NC3CN(C(=O)N(C)C)CCC3NC(=O)c3cc4cc(Cl)ccc4[nH]3)sc2C1 (racemic)", "mL/min/kg", 92.7),
]

A. CCNC(=O)N1CCC(NC(=O)c2cc3cc(Cl)ccc3[nH]2)C(NC(=O)c2nc3c(s2)CN(C)CC3)C1 (racemic)
B. CCOC(=O)N1CCC(NC(=O)c2cc3cc(Cl)ccc3[nH]2)C(NC(=O)c2nc3c(s2)CN(C)CC3)C1 (racemic)
Q) Kindly identify the item with the lower CLint scaled figure among these two: A and B State your choice using its label.
A) A
(A: 86.4 mL/min/kg, B: 138 mL/min/kg)
